System: RERF-LC-KJ
Assay: relative viability (nuclei count vs DMSO), 5 days (fraction); higher = more cells survive
Settings: first compound 0.000632 µM
# maps each entry to its relative viability
Just the number, please, no unit attached.

The following molecules have reported results that may help.
- MOLECULE: "CC(=O)O[C@@]12CO[C@@H]1C[C@H](O)[C@@]1(C)C(=O)[C@H](O)C3=C(C)[C@@H](OC(=O)[C@H](O)[C@@H](NC(=O)OC(C)(C)C)c4ccccc4)C[C@@](O)([C@@H](OC(=O)c4ccccc4)[C@H]21)C3(C)C [Docetaxel] + CC1(C)CCC(c2ccc(Cl)cc2)=C(CN2CCN(c3ccc(C(=O)NS(=O)(=O)c4ccc(N[C@H](CCN5CCOCC5)CSc5ccccc5)c(S(=O)(=O)C(F)(F)F)c4)cc3)CC2)C1 [Navitoclax] (partner 0.5 µM)"
  VALUE KIND: "relative viability"
  NUMBER: 0.576
- MOLECULE: "CC(=O)O[C@@]12CO[C@@H]1C[C@H](O)[C@@]1(C)C(=O)[C@H](O)C3=C(C)[C@@H](OC(=O)[C@H](O)[C@@H](NC(=O)OC(C)(C)C)c4ccccc4)C[C@@](O)([C@@H](OC(=O)c4ccccc4)[C@H]21)C3(C)C [Docetaxel] + Nc1ncn([C@H]2C[C@H](O)[C@@H](CO)O2)c(=O)n1 [Decitabine] (partner 2 µM)"
  VALUE KIND: "relative viability"
  NUMBER: 0.542
- MOLECULE: "CC(=O)O[C@@]12CO[C@@H]1C[C@H](O)[C@@]1(C)C(=O)[C@H](O)C3=C(C)[C@@H](OC(=O)[C@H](O)[C@@H](NC(=O)OC(C)(C)C)c4ccccc4)C[C@@](O)([C@@H](OC(=O)c4ccccc4)[C@H]21)C3(C)C [Docetaxel] + NC(=O)Nc1cc(-c2cccc(F)c2)sc1C(=O)N[C@H]1CCCNC1 [AZD7762] (partner 0.2 µM)"
  VALUE KIND: "relative viability"
  NUMBER: 1.01
- MOLECULE: "CC(=O)O[C@@]12CO[C@@H]1C[C@H](O)[C@@]1(C)C(=O)[C@H](O)C3=C(C)[C@@H](OC(=O)[C@H](O)[C@@H](NC(=O)OC(C)(C)C)c4ccccc4)C[C@@](O)([C@@H](OC(=O)c4ccccc4)[C@H]21)C3(C)C [Docetaxel] + Cc1nc(Nc2ncc(C(=O)Nc3c(C)cccc3Cl)s2)cc(N2CCN(CCO)CC2)n1 [Dasatinib] (partner 0.075 µM)"
  VALUE KIND: "relative viability"
  NUMBER: 0.586
- MOLECULE: "CC(=O)O[C@@]12CO[C@@H]1C[C@H](O)[C@@]1(C)C(=O)[C@H](O)C3=C(C)[C@@H](OC(=O)[C@H](O)[C@@H](NC(=O)OC(C)(C)C)c4ccccc4)C[C@@](O)([C@@H](OC(=O)c4ccccc4)[C@H]21)C3(C)C [Docetaxel] + O=C(CCCCCCC(=O)Nc1ccccc1)NO [Vorinostat] (partner 1 µM)"
  VALUE KIND: "relative viability"
  NUMBER: 0.628

So what relative viability did CC(=O)O[C@@]12CO[C@@H]1C[C@H](O)[C@@]1(C)C(=O)[C@H](O)C3=C(C)[C@@H](OC(=O)[C@H](O)[C@@H](NC(=O)OC(C)(C)C)c4ccccc4)C[C@@](O)([C@@H](OC(=O)c4ccccc4)[C@H]21)C3(C)C [Docetaxel] + COc1cc2c(Oc3ccc(NC(=O)C4(C(=O)Nc5ccc(F)cc5)CC4)cc3F)ccnc2cc1OCCCN1CCOCC1 [Foretinib] (partner 0.25 µM) get with RERF-LC-KJ? 0.898

So what relative viability did CC(=O)O[C@@]12CO[C@@H]1C[C@H](O)[C@@]1(C)C(=O)[C@H](O)C3=C(C)[C@@H](OC(=O)[C@H](O)[C@@H](NC(=O)OC(C)(C)C)c4ccccc4)C[C@@](O)([C@@H](OC(=O)c4ccccc4)[C@H]21)C3(C)C [Docetaxel] + CCNC(=O)c1noc(-c2cc(C(C)C)c(O)cc2O)c1-c1ccc(CN2CCOCC2)cc1 [Luminespib] (partner 0.01 µM) get with RERF-LC-KJ? 0.853

So what relative viability did CC(=O)O[C@@]12CO[C@@H]1C[C@H](O)[C@@]1(C)C(=O)[C@H](O)C3=C(C)[C@@H](OC(=O)[C@H](O)[C@@H](NC(=O)OC(C)(C)C)c4ccccc4)C[C@@](O)([C@@H](OC(=O)c4ccccc4)[C@H]21)C3(C)C [Docetaxel] + N=C(N)NC(=N)NCCc1ccccc1 [Phenformin] (partner 250 µM) get with RERF-LC-KJ? 0.405
